List of IC50 tested on UniProt P56817.
Sequence (P56817 46-501, species assumed): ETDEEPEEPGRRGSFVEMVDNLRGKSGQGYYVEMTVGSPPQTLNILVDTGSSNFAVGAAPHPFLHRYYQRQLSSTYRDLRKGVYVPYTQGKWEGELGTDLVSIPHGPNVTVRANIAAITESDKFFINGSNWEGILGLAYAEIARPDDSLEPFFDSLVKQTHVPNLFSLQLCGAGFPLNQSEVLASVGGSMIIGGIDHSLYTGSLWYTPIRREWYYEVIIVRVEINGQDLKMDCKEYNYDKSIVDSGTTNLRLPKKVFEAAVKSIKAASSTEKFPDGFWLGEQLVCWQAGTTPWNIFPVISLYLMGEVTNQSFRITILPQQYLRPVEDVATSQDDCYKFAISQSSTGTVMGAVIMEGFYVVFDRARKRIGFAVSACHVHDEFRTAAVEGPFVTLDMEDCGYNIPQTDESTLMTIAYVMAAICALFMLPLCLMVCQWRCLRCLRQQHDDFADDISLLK

Known IC50 results, listed for orientation:
Cc1cccc(C(=O)N2CCCC2)c1-c1ccc2nc(N)c(CCc3cncnc3)cc2c1 [Example 33]	< 100 nM
Cc1ccccc1-c1ccc2nc(N)c(C3OCCCC3c3cc(CC(C)(C)C)ncn3)cc2c1 (single isomer, unassigned) [Example 7]	< 100 nM
Cc1ccccc1-c1ccc2nc(N)c(CC(C)c3cncc(C4CCCCC4)c3)cc2c1 (centres unmarked) [Example 27]	< 100 nM
Cc1ccccc1-c1ccc2nc(N)c(CC(C)c3cncc(C4CCCCO4)c3)cc2c1 (centres unmarked) [Example 26]	100 to 1000 nM
Cc1ccccc1-c1ccc2nc(N)c(CCc3cncc(CCC(C)(C)C)c3)cc2c1 [Example 22]	100 to 1000 nM
Cc1ccccc1-c1ccc2nc(N)c(CC(C)c3cc(CC(C)(C)C)ncn3)cc2c1 (centres unmarked) [Example 9]	< 100 nM

Cc1ccccc1-c1ccc2nc(N)c(CCc3cncc(CC(C)C)c3)cc2c1 [Example 18] on UniProt P56817 gives IC50 = 100 to 1000 nM

Entry Cc1cccnc1-c1ccc2nc(N)c(CCc3cc(CC(C)(C)C)ncn3)cc2c1 [Example 6] under UniProt P56817 had IC50 of 100 to 1000 nM

----------
- System: Aβ40 in conditioned medium of cells stably expressing Amyloid Precursor Protein (APP) (HEK cell)
- protocol_description: In vitro BACE cell-based assay (HEK cell assay, Aβ40 sandwich ELISA)
- recorded_conditions: Homo sapiens, HEK293; IC50 range class; inhibition of Aβ40 after 24 h incubation
pIC50: −log10 of the molar value.
Quick list: pIC50 per entry.

Cc1ccccc1-c1ccc2nc(N)c(C=Cc3cncc(C4=CCCCC4)c3)cc2c1	< 5.30
Cc1ccccc1-c1ccc2nc(N)c(CC(C)c3cc(C4CCCC4)ncn3)cc2c1 (stereo not shown)	5.30 to 6.00
Cc1ccccc1-c1ccc2nc(N)c(CC(C)c3cncc(C4CCCCC4)c3)cc2c1 (stereo not shown)	< 5.30

Lab book: pIC50 of `Cc1cccnc1-c1ccc2nc(N)c(CCc3cc(C4CCOCC4)ncn3)cc2c1` noted as 5.30 to 6.00

----------
- System: Aβ40 in conditioned medium of cells stably expressing Amyloid Precursor Protein (APP) (HEK cell)
- protocol_description: In vitro BACE cell-based assay (HEK cell assay, Aβ40 sandwich ELISA)
- recorded_conditions: Homo sapiens, HEK293; IC50 range class; inhibition of Aβ40 after 24 h incubation
pIC50: −log10 of the molar value.
Overview of recorded pIC50 for various compounds

Documented pIC50 of `Cc1ccccc1-c1ccc2nc(N)c(CCc3cncc(CC(C)(C)C)c3)cc2c1` : < 5.30

Entry `Cc1ccccc1-c1ccc2nc(N)c(CCc3ccccn3)cc2c1` , pIC50 reported as < 5.30

# compound `Cc1ccccc1-c1ccc2nc(N)c(CCc3cccc(C(F)(F)F)c3)cc2c1` ; its pIC50 = < 5.30

The measured pIC50 associated with `Cc1ccccc1-c1ccc2nc(N)c(CCc3cncc(C4CCCCC4)c3)cc2c1` reads < 5.30

In plain terms, `Cc1ccccc1-c1ccc2nc(N)c(CCc3cncc(CC(C)C)c3)cc2c1` has a documented pIC50 of 5.30 to 6.00

Noted for Cc1cccc(C(=O)N2CCCC2C)c1-c1ccc2nc(N)c(CCc3cncnc3)cc2c1 (racemic) : its pIC50 reads > 6.30

Data provenance: patent US8822485B2
